System: HOP-62 NSCLC
Assay: NCI tumour cell line growth inhibition, 48 h
I'd be grateful if you could share measured TGI for these entries.
Give bare numbers, in µM.

Use the examples below as a reference point.
CCN(CC)CCNc1ccc2nnn3c4ccc(C)cc4c(=O)c1c23 | 28.9
O=c1c2ccccc2nc(-c2cc3c(cc2Cl)Sc2nccn2S3(=O)=O)n1-c1ccccc1 | 35.7
O=[N+]([O-])c1c(F)c(F)c2c(c1F)Nc1ccccc1S2 | 27.6

For every item in the list below, what is its measured TGI?
1. CN(/N=C/c1cccc2cccnc12)c1ccc([N+](=O)[O-])cc1[N+](=O)[O-]
2. CCCCCCCCNc1cc2c3c(c1)CCCN3CCC2

Reply:
[22.9, 18.3]

---

These compounds were tested on MDA-MB-435; GI50 is the recorded read-out.

CCOC(=O)Nc1ccc2c(c1)/C(=N\NC(N)=S)c1ccccc1-2 | 3580 nM
CC1(C)C2CCC13C(=O)C1OC3(C2)C2C(=O)c3cc4ccccc4cc3C(=O)C12 (centres undefined) | 8580 nM

For every item in the list below, what is its measured GI50?
1. COc1cc(/C=C\c2cc(OC)c(OC)c(OC)c2)cc(NC(=O)/C=C/c2cc(OC)c(OC)c(OC)c2)c1OC
2. O=C1C(Cl)=C(Nc2cccc(Cl)c2)C(=O)N1Cc1ccc(Cl)cc1
3. ClCc1cccc2c(CCl)cccc12
4. O=C(c1ccccc1)c1ccccc1-c1ccccc1

Reply:
1: 1540 nM; 2: 396 nM; 3: 4280 nM; 4: 325 nM

For every item in the list below, what is its measured GI50?
1. CCOC(=O)N1CCN(/[N+]([O-])=N/Oc2ccc([N+](=O)[O-])cc2[N+](=O)[O-])CC1
2. C[C@]12CC[C@@H]3c4ccc(OC(=O)N(CCCl)CCCl)cc4CC[C@H]3[C@@H]1CC[C@@H]2O
3. C=C1C(=O)O[C@H]2[C@H]1CC/C(COC(=O)CSCSCC(=O)OC/C1=C/CC[C@@]3(C)O[C@H]3[C@H]3OC(=O)C(=C)[C@@H]3CC1)=C\CC[C@@]1(C)O[C@@H]21

Reply:
1: 315 nM; 2: 354 nM; 3: 2000 nM

---

System: LOX IMVI melanoma
Experiment: NCI tumour cell line growth inhibition, 48 h; in the data active means GI50 below about 0.43 µM; inactive means the rest
Log the outcome using a class from 1.0 (active), 0.0 (inactive)

CN(CCO)CC[C@H](CSc1ccccc1)Nc1ccc(S(=O)(=O)NC(=O)c2ccc(N3CCC([C@@H](O)c4ccccc4-c4ccc(Cl)cc4)CC3)cc2)cc1S(=O)(=O)C(F)(F)F | 0.0
CCCCCCCCNc1cc2c3c(c1)CCCN3CCC2 | 0.0
COc1ccc(-c2nn(-c3cccc(Cl)c3)cc2-c2cc(-c3cccs3)[nH]c(=S)n2)cc1 | 0.0

Query: So what was the verdict on O=c1[nH]c(=O)c2cn[nH]c2[nH]1 in this test?
Reply: 0.0

Query: So what was the verdict on C[C@]12CC[C@@H]3c4ccc(OC(=O)N(CCCl)CCCl)cc4CC[C@H]3[C@@H]1CC[C@@H]2O in this test?
Reply: 0.0

Query: So what was the verdict on C[C@@]1(C(=O)O)CCC[C@]2(C)C1CC[C@@]13CC(=O)[C@@](CO)(CC[C@]12O)C3 (stereo partly drawn) in this test?
Reply: 0.0

Query: So what was the verdict on C[C@]12C[C@H](CCCCCCNCCOC(=O)NCCCc3ccc(N(CCCl)CCCl)cc3)C3=C4CCC(=O)C=C4CCC3C1CC[C@@H]2O (stereo partly drawn) in this test?
Reply: 0.0

Query: So what was the verdict on CCN(Cc1cc(Nc2nc(C)cn3c(-c4cn[nH]c4)cnc23)sn1)C(C)(C)CO in this test?
Reply: 1.0

---

System: SF-268 CNS
Assay: NCI tumour cell line growth inhibition, 48 h; in the data active = GI50 below about 0.43 µM; inactive = the rest
Log the outcome using a class from active, inactive

C=CCN=c1sc2c(n1NC(=O)c1cc3ccc1CCc1ccc(cc1)CC3)C(=O)c1ccccc1C2=O | inactive

Query: So what was the verdict on OC(Cc1ccncc1)C(Cl)(Cl)Cl (centres undefined) in this test?
Reply: inactive

Query: So what was the verdict on CC[C@@H]1c2c(C#N)ncn2-c2cnc(Nc3ccc(C(=O)NC4CCN(C5CCN(CC6CC6)CC5)CC4)cc3OC)nc2N1C1CCCC1 in this test?
Reply: active

Query: So what was the verdict on C=C1C(=O)O[C@H]2[C@H]1CC/C(COC(=O)CSCSCC(=O)OC/C1=C/CC[C@@]3(C)O[C@H]3[C@H]3OC(=O)C(=C)[C@@H]3CC1)=C\CC[C@@]1(C)O[C@@H]21 in this test?
Reply: inactive

---

Test system: HCC-2998 colon
Experiment: NCI tumour cell line growth inhibition, 48 h; in the data active means GI50 below about 0.43 µM; inactive means the rest
Log the outcome using a class from 1.0 = active, 0.0 = inactive

Oc1c(-c2nnc(-c3ccccc3Cl)o2)sc2nnc(-c3ccccc3)c(-c3ccccc3)c12 | 0.0
CCCCON(OC(=O)c1ccc2ccccc2c1)C(=O)c1ccccc1 | 0.0
C[C@H](NC(=O)[C@@H](C)N)[C@H](Oc1ccc2c(cnn2-c2ccc(F)cc2)c1)c1ccc2c(c1)OCCO2 | 0.0

Query: So what was the verdict on C[C@]12C[C@H](CCCCCCNCCOC(=O)NCCCc3ccc(N(CCCl)CCCl)cc3)C3=C4CCC(=O)C=C4CCC3C1CC[C@@H]2O (some centres not stated) in this test?
Reply: 0.0

Query: So what was the verdict on C=C(C)C(O)CCC1(C)C=Cc2c(c(C)cc3c2[nH]c2ccccc23)O1 (configuration not stated) in this test?
Reply: 0.0

Query: So what was the verdict on COC12C=C/C(=C(/C(=O)OCc3cncnc3)C(=O)CCCCCCCCC3(OC)C=C/C(=C(/C(=O)OCc4cncnc4)C(=O)CCCCCCCC1)O3)O2 in this test?
Reply: 0.0

Query: So what was the verdict on O=C(c1ccccc1)c1ccccc1-c1ccccc1 in this test?
Reply: 0.0

Query: So what was the verdict on Cc1nnn[n-]1.N.N.N.N.N.[Cl-].[Co+3] in this test?
Reply: 0.0

---

Tested on: MDA-MB-435
Experiment: NCI tumour cell line growth inhibition, 48 h
metric-name: TGI (µM)
Answers are plain numbers, in µM.

CCCCCCCCNc1cc2c3c(c1)CCCN3CCC2 | 11.7
C[C@H](NC(=O)[C@@H](C)N)[C@H](Oc1ccc2c(cnn2-c2ccc(F)cc2)c1)c1ccc2c(c1)OCCO2 | 3.24
O=C1Nc2ccccc2C1=Nc1cccc2ncccc12 | 42.3
CC(=O)C1(Cc2cccc3ccccc23)S(=O)(=O)OCCOS1(=O)=O | 27.8
O=C(c1ccccc1)c1ccccc1-c1ccccc1 | 7.87

For every item in the list below, what is its measured TGI?
1. CN(CCNC(=O)c1nn(-c2ccccc2)c2c1Cc1ccccc1-2)CCNC(=O)c1nn(-c2ccccc2)c2c1Cc1ccccc1-2
2. C=CCN=c1sc2c(n1NC(=O)c1cc3ccc1CCc1ccc(cc1)CC3)C(=O)c1ccccc1C2=O
3. CCCc1cc(=O)oc2c3c(c4c(c12)OC(C)(C)CC4)O[C@@H](C)[C@H](C)[C@H]3O

Reply:
3.17
0.363
22.1

---

System: SK-MEL-28 melanoma
Test: NCI tumour cell line growth inhibition, 48 h
metric-name: TGI

Use the examples below as a reference point.
O=C(O)CN(CC(=O)O)Cc1cc(C#Cc2ccc(C#Cc3ccccc3)cc2)cc(CN(CC(=O)O)CC(=O)O)n1 | > 100 µM
COC12C=C/C(=C(/C(=O)OCc3cncnc3)C(=O)CCCCCCCCC3(OC)C=C/C(=C(/C(=O)OCc4cncnc4)C(=O)CCCCCCCC1)O3)O2 | 1.65 µM
CCN(C(=O)N[C@@H](Cc1ccccc1)C(=O)N[C@@H](CC(C)C)C(=O)OC)c1ccccc1 | 32.6 µM
c1coc(CNc2ncnc3[nH]ncc23)c1 | > 100 µM
S=c1nc(N2CCCCC2)c2cn[nH]c2[nH]1 | > 100 µM
N#CN=[N+]([O-])c1ccc(C(=O)O)cc1 | 33.4 µM
c1ccc(-c2nnc(-c3ccccn3)c3c2C[C@@H]2C[C@@H]4Cc5c(-c6ccccn6)nnc(-c6ccccn6)c5[C@@H]4[C@H]32)nc1 | 75.9 µM
C=C1C(=O)O[C@@H]2C[C@@H](C)[C@@H]3C=CC(=O)[C@@]3(C)[C@@H](O)[C@H]12 | 3.77 µM

For every item in the list below, what is its measured TGI?
1. CN(Cc1ccccc1)C(=NC#N)N(Cc1ccccc1)Cc1ccccc1
2. N.N.N.N.N.NC(=O)c1nn[n-]n1.[Cl-].[Co+3]
3. COc1cc(C2=C(c3cc(OC)c4ccccc4c3OC)C(=O)c3ccccc3C2=O)c(OC)c2ccccc12
4. COC(=O)NC(=O)c1cn(C2OC(CO)C(O)C2O)c(=O)[nH]c1=O (centres undefined)
5. O=C(O)c1n[nH][nH]c1=S
6. COC(=O)C1CC23CCCN4CCC5(c6ccccc6N(C=O)C15CC2)C43 (centres undefined)

Reply:
1. 83.1 µM
2. > 100 µM
3. > 100 µM
4. > 100 µM
5. > 100 µM
6. > 100 µM

For every item in the list below, what is its measured TGI?
1. C=C(C)C(O)CCC1(C)C=Cc2c(c(C)cc3c2[nH]c2ccccc23)O1 (centres undefined)
2. O=S1(=O)OCCOS(=O)(=O)C1S(=O)(=O)c1ccc2ccccc2c1
3. COc1cccc(N2CCN(CC(=O)N3CCN(c4nnc(-c5ccc(Cl)cc5)c(-c5ccc(Cl)cc5)n4)CC3)CC2)c1

Reply:
25 µM
> 100 µM
> 100 µM

For every item in the list below, what is its measured TGI?
1. O=C1NCC(CSc2nc3cc(C4CCCc5c4[nH]c4ccccc54)ccc3o2)N1 (centres undefined)
2. CC1CCC2(O)C3(C)CC4(O)OC2(C1O)C1(O)C3(O)C(OC(=O)c2ccc[nH]2)C(O)(C(C)C)C41C (centres undefined)

Reply:
> 100 µM
> 100 µM
